The reported measurements were obtained from patent US8017611B2.

biological target: recombinant Axl tyrosine kinase (Homo sapiens); construct: encompassing amino acids 473 to 894 of Axl; GST (N); made in house; host or cells: SF126 insect cells; assay: In vitro Axl kinase assay (AlphaScreen), Test (a); assay type: biochemical; details: test compound at 1 μM; first value quoted
observable: % Axl tyrosine kinase inhibition at 1 μM concentration (%)
A number alone suffices; assume %.

In the examples that follow, each entry is paired with its recorded % Axl tyrosine kinase inhibition at 1 μM concentration.
{"compound": "N#Cc1nn(C2CCNCC2)cc1-c1cnc(N)c(-c2nc3ccccc3o2)c1", "measurement-unit": "%", "result-value": 100.0}
{"compound": "N#CCc1ccc(-c2cnc(N)c(-c3nc4cccnc4o3)c2)cc1", "measurement-unit": "%", "result-value": 97.7}
{"compound": "CN(C)C(=O)CN1CCC(n2cc(-c3cnc(N)c(-c4nc5ccccc5o4)c3)cn2)CC1", "measurement-unit": "%", "result-value": 99.9}

// next item, % Axl tyrosine kinase inhibition at 1 μM concentration requested
Task: Endpoint output: % Axl tyrosine kinase inhibition at 1 μM concentration of CN1CCN(CCNC(=O)c2ccc(-c3cnc(N)c(-c4nc5cccnc5o4)c3)cc2)CC1 [Example 45A.73] . Value?
Result: 96.0

###

Molecular target: recombinant Axl tyrosine kinase (Homo sapiens)
Construct: encompassing amino acids 473 to 894 of Axl; GST (N); made in house; host or cells: SF126 insect cells
Sequence (P30530 473-894): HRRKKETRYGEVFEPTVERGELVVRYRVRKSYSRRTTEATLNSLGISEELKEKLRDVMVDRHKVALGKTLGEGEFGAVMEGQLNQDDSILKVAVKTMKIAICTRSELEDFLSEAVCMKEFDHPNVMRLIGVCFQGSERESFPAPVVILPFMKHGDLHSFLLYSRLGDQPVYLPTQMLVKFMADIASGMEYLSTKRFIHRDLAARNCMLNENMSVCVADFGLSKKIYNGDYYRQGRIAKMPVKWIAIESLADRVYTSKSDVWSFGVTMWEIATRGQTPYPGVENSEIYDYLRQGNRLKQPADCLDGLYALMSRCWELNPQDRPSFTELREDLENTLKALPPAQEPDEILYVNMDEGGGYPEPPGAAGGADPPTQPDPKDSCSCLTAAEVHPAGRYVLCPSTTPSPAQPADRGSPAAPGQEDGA
Test: In vitro Axl kinase assay (AlphaScreen), Test (a)
Assay type: biochemical
Conditions: test compound at 1 μM; first value quoted; read-out: % Axl tyrosine kinase inhibition at 1 μM concentration
observable: inhibition at 1 µM

In the examples that follow, each entry is paired with its recorded inhibition at 1 µM.
{"compound": "CC(C)(C)OC(=O)N1CCC(n2cc(-c3cnc(N)c(-c4nc5ccccc5o4)n3)cn2)CC1 [Example 15]", "inhibition at 1 µM": "93.1%"}
{"compound": "CN(C)Cc1ccc(-c2cnc(N)c(-c3nc4ccccc4o3)c2)cc1 [Example 1]", "inhibition at 1 µM": "99.8%"}
{"compound": "CN1CCC(n2cc(-c3cnc(N)c(-c4nc5ccccc5o4)c3)cn2)CC1 [Example 3]", "inhibition at 1 µM": "100%"}
{"compound": "COCc1nn(C2CCN(C(=O)CO)CC2)cc1-c1cnc(N)c(-c2nc3ccccc3o2)c1 [Example 66]", "inhibition at 1 µM": "100%"}
{"compound": "COCCOC(=O)N1CCC(n2cc(-c3cnc(N)c(-c4nc5ncccc5o4)c3)cn2)CC1 [Example 54]", "inhibition at 1 µM": "99.5%"}
{"compound": "COCc1nn(C2CCN(C(=O)CN(C)C)CC2)cc1-c1cnc(N)c(-c2nc3ccccc3o2)c1 [Example 71]", "inhibition at 1 µM": "100%"}
{"compound": "Cc1nn(C2CCNCC2)cc1-c1cnc(N)c(-c2nc3ccccc3o2)c1 [Example 22]", "inhibition at 1 µM": "100%"}
{"compound": "COCc1nn(C2CCN(CCO)CC2)cc1-c1cnc(N)c(-c2nc3ccccc3o2)c1 [Example 72]", "inhibition at 1 µM": "100%"}
{"compound": "Nc1ncc(-c2cccc(S(=O)(=O)CCC3CCNCC3)c2)cc1-c1nc2ccccc2o1 [Example 46]", "inhibition at 1 µM": "95.9%"}
{"compound": "C[N+]1([O-])CCC(n2cc(-c3cnc(N)c(-c4nc5ccccc5o4)c3)cn2)CC1 (centres unmarked) [Example 12]", "inhibition at 1 µM": "90.6%"}

// next item, inhibition at 1 µM requested
Task: Give recorded inhibition at 1 µM with recombinant Axl tyrosine kinase (Homo sapiens) for the following compound: Cc1nn(C2CCNCC2)cc1-c1cnc(N)c(-c2nc3ccccc3o2)n1 [Example 20.20]
Result: 99.9%
